Values were extracted from PubChem BioAssay (NCI).

- System: SF-268 CNS
- assay_method_text: NCI-60 one-dose screen, 48 h (100 = growth as untreated, 0 = no growth, -100 = all killed)
- measurement_conditions: 10 µM unless noted
Compounds without any hit were thinned out: in the full panel of roughly 83,000, 20% have a hit.
Assignment: determine reported growth for the given compounds.
Give bare numbers, in %.

Previously resolved entries follow.
Endpoint output: growth of CCC(CC)N1C(=O)/C(=c2\sc3n(c2=O)NC2C(N=3)N(CC)C(=O)N2CC)c2ccccc21 (centres undefined) . Value?
63.4

Endpoint output: growth of `COc1cc(OC)c(/C=C/S(=O)(=O)Cc2ccc(OC)c(NC(=O)CCC(=O)NO)c2)c(OC)c1` . Value?
30.4

Hi there! I need growth for each item below, if you can.
1. NS(=O)(=O)c1ccc(-n2cc(CN3CCNCC3)nn2)cc1
2. COc1cc(-c2nnc(SCc3ccc(O)c4ncccc34)n2-c2ccccc2)cc(OC)c1OC

1: 102; 2: 8.87

---

- Test system: A498 renal
- assay_method_text: NCI-60 one-dose screen, 48 h
- measurement_conditions: 10 µM unless noted
The panel holds about 83,000 compounds, 20% with a hit somewhere; the sample as a whole holds those more often. Calls of active or inactive are those of the source. Rule for the calls: active = growth percent below 10; inactive = the rest.
The categories you may choose from are Y = active, N = inactive

Returns: the outcome recorded for `Cc1ccc(-c2cc3nc(C(Cl)Cl)nc(C)n3n2)cc1` in this assay.
N

Returns: the outcome recorded for `COc1ccc(C(=O)CSc2nc3c(c(Nc4ccc(S(N)(=O)=O)cc4)n2)CCCC3)cc1` in this assay.
N

Returns: the outcome recorded for `COc1ccc(Cn2cc3c(c2-c2cc(OC)c(OC)c(OC)c2)CCc2c(CN4CCCC4)noc2-3)cc1` in this assay.
Y

Returns: the outcome recorded for `C#C[C@]1(O)CC[C@H]2[C@@H]3CC=C4c5sc(-c6cccc(O)c6)nc5CC[C@]4(C)[C@H]3CC[C@@]21C` in this assay.
Y

Returns: the outcome recorded for `CC(C)(C)c1ccc(-c2nnc(-c3nc4ccccc4nc3Cl)o2)cc1` in this assay.
N

More entries:
Returns: the outcome recorded for `CC1=NC2=NC(=O)/C(=C3/N=C(C)C=C(c4ccccc4)N3N)NN2C(c2ccccc2)=C1` in this assay.
N

Returns: the outcome recorded for `Cc1ccc(NC(=O)c2ccc(CN3CCN(C)CC3)cc2)cc1Oc1ccc(-c2[nH]nc3ncnc(N)c23)cc1` in this assay.
N

Returns: the outcome recorded for CCCn1cnc2c(c1=N)C(c1ccc(F)cc1)c1sc3c(CC)cccc3c1O2 (configuration not stated) in this assay.
Y

Returns: the outcome recorded for `CC1=NC2=NN3C(=NN2C(c2ccccc2)=C1)N=NC(c1ccc(Br)cc1)=C3c1ccc(Br)cc1` in this assay.
N

Returns: the outcome recorded for `COc1cc(-c2nn(C(C)(C)C)cc2-c2ccnc(NCCCNS(=O)(=O)c3ccc(Cl)cc3)n2)ccc1Cl` in this assay.
N

---

- System: SF-539 CNS
- assay_method_text: NCI-60 one-dose screen, 48 h (100 = growth as untreated, 0 = no growth, -100 = all killed)
- measurement_conditions: 10 µM unless noted
This is part of a sample that, as a whole, favours compounds with a hit. Of some 83,000 tested, about 20% had one in any assay.
# t = growth below 90% (exclusive); f = growth at/above 90%

Here are 3 compounds together with their reported answers.
Regarding `Cc1ccc(NC(=O)c2ccc(CN3CCN(C)CC3)cc2)cc1Oc1ccc(-c2[nH]nc3ncnc(N)c23)cc1` , kindly confirm whether its growth is beneath 90%.
t

Regarding `NC(N)=Nc1ccc(Oc2cccc(Nc3cccc(C(F)(F)F)c3)c2)cn1` , kindly confirm whether its growth is beneath 90%.
t

Regarding `CC(C)(C)n1cc(-c2ccnc(NCCCNS(=O)(=O)c3cccc(F)c3)n2)c(-c2ccc(Cl)c(O)c2)n1` , kindly confirm whether its growth is beneath 90%.
f

More entries:
Regarding `O=C(NNc1nc2cc(F)ccc2n2c(CN3CCCC3)ccc12)c1cnccn1` , kindly confirm whether its growth is beneath 90%.
t

Regarding `Cc1nc(-c2ccccc2O)ccc1C(=O)N=Nc1c(O)[nH]c2ccc(Br)cc12` , kindly confirm whether its growth is beneath 90%.
f
